Test system: SW-620
Test: NCI tumour cell line growth inhibition, 48 h
Activity calls are given as the source filed them. No stated cut-off is given here; in the data, active = GI50 up to about 1.1 µM and inactive = higher.
Outcome codes: yes (active), no (inactive)

[[record]]
molecule = "C=C1C2CC(OC(C)=O)C3(C)C(c4ccoc4)OC(=O)[C@@H](O)[C@]13OC1C[C@H](OC(C)=O)C(C)(C)[C@H](CC(=O)OC)[C@]12C (some centres undefined)"
label_class = "no"

[[record]]
molecule = "CCOC(=O)C1C(c2ccc3c(c2)OCO3)c2c(n[nH]c2O)CC1(O)OCC (centres undefined)"
label_class = "no"

[[record]]
molecule = "C[C@]1(O)CC(=O)c2c(c(-c3ccc4cc5c(c(O)c4c3O)C(=O)C[C@@](C)(O)C5)c3cccc(O)c3c2O)C1"
label_class = "no"

[[record]]
molecule = "O=CC1=CCCC2(C1)OCCO2"
label_class = "no"

[[record]]
molecule = "c1csc(-c2cscc2-c2cccs2)c1"
label_class = "no"

[[record]]
molecule = "Cc1ccc(C2=NN=C3C(c4ccccc4)=Nc4ccccc4N3C2)cc1"
label_class = "no"

[[record]]
molecule = "Cc1cc(N(CCC#N)CCC#N)ccc1/C=C(\\NC(=O)/C=C/c1ccccc1)C(=O)NN"
label_class = "no"

[[record]]
molecule = "O=C1CC(NCc2ccccc2)c2c(Cl)sc(Cl)c21 (centres undefined)"
label_class = "no"

[[record]]
molecule = "Cc1cc(OCC(O)CO)ccc1Cl (centres undefined)"
label_class = "no"

[[record]]
molecule = "O=C1NC(=O)C2C1c1[nH]c3ccccc3c1C1CCCC12 (centres undefined)"
label_class = "yes"

[[record]]
molecule = "CNc1cccnc1/C=N/N=C(/N)S"
label_class = "no"

[[record]]
molecule = "O=[N+]([O-])c1cccnc1-n1cnc2ccccc21"
label_class = "no"

[[record]]
molecule = "CC1(C)C(=O)N(O)C(C)(C)N1O"
label_class = "no"

[[record]]
molecule = "Cc1n[n+]([O-])c(C)cc1[N+](=O)[O-]"
label_class = "no"

[[record]]
molecule = "Oc1ccc(/C=C\\c2nnc(/C=C\\c3ccc(O)c(O)c3)s2)cc1O"
label_class = "no"

[[record]]
molecule = "CCOC(=O)C1(C(=O)OCC)C(C(C)(C)C)=C(C)c2ccccc21"
label_class = "no"

[[record]]
molecule = "Nc1ccc2c(c1)Cc1ccccc1-2"
label_class = "no"

[[record]]
molecule = "COc1cccc(NC(=O)CC(=O)N2N=C(C)C(/N=N\\c3ccc(S(=O)(=O)c4ccc(/N=N/C5C(=O)N(C(=O)CC(=O)Nc6cccc(OC)c6)N=C5C)cc4)cc3)C2=O)c1 (centres undefined)"
label_class = "no"

[[record]]
molecule = "C1CSC2=C(S1)SC1=C(S2)SC(=C2SC3=C(SC4=C(SCCS4)S3)S2)S1"
label_class = "no"

[[record]]
molecule = "COc1ccc2c(c1)c(=O)c1c(NCCCN(C)CCCNc3ccc4c(=O)n(CCN(C)C)c(=O)n5c6ccc(OC)cc6c(=O)c3c45)ccc3c(=O)n(CCN(C)C)c(=O)n2c31"
label_class = "yes"

[[record]]
molecule = "CCC1([N+](=O)[O-])CN(N=O)C1"
label_class = "no"

[[record]]
molecule = "CC(=O)OCC1OC(n2c(C)c(C(C)=O)c(-c3ccco3)c(C#N)c2=S)C(OC(C)=O)C(OC(C)=O)C1OC(C)=O (centres undefined)"
label_class = "no"

[[record]]
molecule = "O=C(Nc1cc2cc([N+](=O)[O-])ccc2oc1=O)c1cccs1"
label_class = "no"

[[record]]
molecule = "Clc1cccc2[nH]ncc12"
label_class = "no"

[[record]]
molecule = "CC1(CO)C(O)CCC2(C)C1C(O)CC1CC3CC12CCC3(O)CO (centres undefined)"
label_class = "no"

[[record]]
molecule = "CC(=O)O[C@H]1C[C@H](O[C@H]2[C@@H](O)C[C@H](O[C@H]3[C@@H](O)C[C@H](O[C@H]4CC[C@@]5(C)[C@H](CC[C@@H]6[C@@H]5CC[C@]5(O)[C@@H](C7=CC(=O)OC7)CC[C@]65O)C4)O[C@@H]3C)O[C@@H]2C)O[C@H](C)[C@H]1O[C@@H]1O[C@H](CO)[C@@H](O)[C@H](O)[C@H]1O"
label_class = "yes"

[[record]]
molecule = "COc1ccc2oc(S(=O)(=O)N3CC(CCl)c4ccc([N+](=O)[O-])cc43)cc2c1 (centres undefined)"
label_class = "yes"

[[record]]
molecule = "[N-]=[N+]=NC1(Cc2ccccc2)C(=O)Nc2ccccc2C1=O (centres undefined)"
label_class = "no"

[[record]]
molecule = "NC(=S)N/N=C1/C(=O)N(c2ccc(Cl)cc2Cl)C(=O)C(=O)C1c1nc2ccccc2s1 (centres undefined)"
label_class = "no"

[[record]]
molecule = "CCS(=O)(=O)c1c2cc(OC)ccc2nc2ccc(OC)cc12"
label_class = "no"

[[record]]
molecule = "Cc1cc(S(=O)(=O)Nc2nc(N)n[nH]2)c(SCC(=O)O)cc1Cl"
label_class = "no"

[[record]]
molecule = "NC(C(=O)O)C(N)C(=O)O (centres undefined)"
label_class = "no"

[[record]]
molecule = "CN(C)CCNCc1ccc2c(-c3ccccc3)nc3cc(Cl)c(Cl)cc3n12"
label_class = "no"

[[record]]
molecule = "COc1ccc2nc3ccc(OC)cc3c([S+]([O-])Cc3ccccc3)c2c1 (centres undefined)"
label_class = "no"

[[record]]
molecule = "CC(C)C(/C=C/c1ccc(Cl)c(Cl)c1)=N\\NC(=O)N/N=C(/C=C/c1ccc(Cl)c(Cl)c1)C(C)C"
label_class = "no"

[[record]]
molecule = "O=C(Cn1c(=O)oc2ccc(C(=O)c3ccc(F)cc3)cc21)c1ccccc1"
label_class = "no"

[[record]]
molecule = "Cc1cc2nc(C=C(C(F)(F)F)C(F)(F)F)oc2cc1C"
label_class = "no"

[[record]]
molecule = "O[C@H]1[C@H](O)[C@H](O)CN2CCC[C@@H](O)[C@H]12"
label_class = "no"

[[record]]
molecule = "Nc1ccc2ncc(NCc3ccc(F)cc3)nc2c1"
label_class = "no"

